Listed below: inhibition values for each entry.
- Tested On: Nonstructural protein 3 (Zika virus) (UniProt A0A024AXB9)
- Sequence (A0A024AXB9 as listed by the source): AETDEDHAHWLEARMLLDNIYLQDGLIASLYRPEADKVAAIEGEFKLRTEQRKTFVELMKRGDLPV
- Measurement Context: PRVABC59, Concentration 15.0 uM, Number of replicates 1.0
- Description: Functional biochemical assay to identify treatments for viral infectious disease that targets Zika NS2B-NS3 protease. Utilizing a direct enzyme activity measurement method, reading the fluorescence intensity is used to characterize the relative potency of inhibitors as % inhibition.
About 160 (5.9%) of roughly 2,700 compounds showed an effect of 50% or more. Shown is part of a subset that was picked to be rich in strong results.
Quantity Name: inhibition (%)

In [3]: df
Out[3]:
                               smiles_input  value_observed
0  O=C(Nc1ccc([N+](=O)[O-])cc1)c1cc(Cl)ccc1NS(=O)(=O)c1ccc(Oc2ccccc2Cl)cc1            29.8
1  O=C(Nc1cc(Cl)cc([N+](=O)[O-])c1O)c1cc(Cl)ccc1NS(=O)(=O)c1ccc(Oc2ccccc2Cl)cc1            92.4
2  O=C(Nc1cc(Cl)cc(Cl)c1O)c1cc(Cl)ccc1NS(=O)(=O)c1ccc(Oc2ccccc2Cl)cc1            74.3
3  CC(C)N(Cc1cnn(C)c1)C(=O)c1cc(Cl)ccc1NS(=O)(=O)c1ccc(Oc2ccccc2Cl)cc1            21.9
4  COc1cc2c(cc1NC(=O)c1cc(Cl)ccc1NS(=O)(=O)c1ccc(Oc3ccccc3Cl)cc1)oc1ccccc12            36.2
5  O=C(Nc1ccc(O)cc1[N+](=O)[O-])c1cc(Cl)ccc1NS(=O)(=O)c1ccc(Oc2ccccc2Cl)cc1            32.2
6  CC(C)(C)c1ccc(S(=O)(=O)N2CCN(C(=O)c3cc(Cl)ccc3NS(=O)(=O)c3ccc(Oc4ccccc4Cl)cc3)CC2)cc1            14.3
7  O=C(Nc1ccc([N+](=O)[O-])c2ccccc12)c1cc(Cl)ccc1NS(=O)(=O)c1ccc(Oc2ccccc2Cl)cc1            22.7

====

- Tested On: Nonstructural protein 3 (Zika virus)
- Measurement Context: PRVABC59, Concentration 10.0 uM, Number of replicates 1.0
Screen size: about 2,700 compounds; about 160 (5.9%) showed an effect of 50% or more. The list comes from a sample in which strong results are over-represented; it also holds close analogues and randomly drawn compounds.
Quantity Name: inhibition (%)

                               smiles_input                             tested_on  value_observed
0  O=Cc1ccc(N2CCC(C(=O)NCc3cc(F)ccc3Br)CC2)cc1  Nonstructural protein 3 (Zika virus)            4.33
1  O=Cc1ccc(N2CCC(C(=O)NCc3ccccc3-n3cccn3)CC2)cc1  Nonstructural protein 3 (Zika virus)            21.4
2  O=Cc1ccc(N2CCC(C(=O)NCc3c(F)cc(F)c(F)c3F)CC2)cc1  Nonstructural protein 3 (Zika virus)            22.5
3  COc1ccc([C@@H](C)NC(=O)C2CCN(c3ccc(C=O)cc3)CC2)cc1OC  Nonstructural protein 3 (Zika virus)            22.9

====

- Tested On: Nonstructural protein 3 (Zika virus) (UniProt A0A024AXB9)
- Measurement Context: PRVABC59, Concentration 50.0 uM, Number of replicates 1.0
In all, about 2,700 compounds went through this assay and about 160 (5.9%) showed an effect of 50% or more. This excerpt belongs to a sample that is enriched for strong results.
Quantity Name: inhibition

>>> print(df.to_string())
                               smiles_input  quantity_name  value_observed
0  O=Cc1ccc(N2CCC(C(=O)N3CCC(Oc4ncccn4)CC3)CC2)cc1     inhibition           25.2%
1  NC(=O)[C@H](Cc1ccc(O)cc1)NC(=O)C1CCN(c2ccc(C=O)cc2)CC1     inhibition             27%
2  O=Cc1ccc(N2CCC(C(=O)Nc3cc(Cl)cc([N+](=O)[O-])c3O)CC2)cc1     inhibition           93.4%
